Source of measurements: patent US12024499B2

- Assay Target: human muscarinic M4 receptor (Homo sapiens)
- Construct: expressed in transfected cells
- Sequence (P08173 whole entry): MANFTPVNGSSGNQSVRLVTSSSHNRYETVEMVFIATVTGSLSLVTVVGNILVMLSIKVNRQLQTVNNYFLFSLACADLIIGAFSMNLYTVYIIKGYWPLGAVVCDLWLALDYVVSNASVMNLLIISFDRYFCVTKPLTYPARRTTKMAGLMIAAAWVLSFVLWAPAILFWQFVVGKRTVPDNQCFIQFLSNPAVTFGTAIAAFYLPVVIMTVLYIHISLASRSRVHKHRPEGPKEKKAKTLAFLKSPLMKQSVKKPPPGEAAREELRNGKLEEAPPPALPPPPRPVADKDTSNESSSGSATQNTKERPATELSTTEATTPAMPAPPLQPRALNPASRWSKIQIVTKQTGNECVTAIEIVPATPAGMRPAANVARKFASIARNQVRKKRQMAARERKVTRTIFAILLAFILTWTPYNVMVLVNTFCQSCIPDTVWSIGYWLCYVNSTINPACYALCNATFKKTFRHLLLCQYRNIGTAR
- Procedure Details: Alphascreen Surefire phospho-ERK1/2 assay, M4
- Format: cell-based
- Test Settings: CHO, read-out: % Emax cf. ACh, M4
Endpoint Label: Emax (%)
Kindly provide the numeric value in % only, without the unit symbol.

[
  {
    "Compound": "CCOC(=O)N1CCC2(CC(N3CCC(N4C(=O)C[C@@H]4CC)CC3)C2)C1 (single isomer, unassigned)",
    "Unit Annotation": "%",
    "Emax": 56
  },
  {
    "Compound": "CCOC(=O)N1CCC2(CC(N3CCC(N4CCC4=O)CC3)C2)C1 (single isomer, unassigned)",
    "Unit Annotation": "%",
    "Emax": 23
  },
  {
    "Compound": "CCOC(=O)N1CCC2(CC(N3CCC(N4CC[C@@H]4C(=O)OC)CC3)C2)C1 (single isomer, unassigned)",
    "Unit Annotation": "%",
    "Emax": 67
  }
]

Now take the following compound into account.
[in] Given CCOC(=O)N1CCC2(CC(N3CCC(N4CC(F)(F)C4)CC3)C2)C1 (single isomer, unassigned) , state its recorded Emax.
[out] 26
